System: Strain IIIB, wild type HIV-LAI strain
assay.text: Antiviral activity, cellular assay, strain IIIB
Format: cell-based
condition.description: Human immunodeficiency virus 1, IIIB
quantity.kind: EC50 (nM)
Hi! Could you send only the number? It should be in nM, unit omitted.

Print Strain IIIB, wild type HIV-LAI strain EC50 for `Cc1cc(/C=C/C#N)cc(C)c1Nc1nc(Nc2ccc(C#N)cc2)ncc1NC=O` .
0.398

----------
study.system: Strain F, mutations K103N and Y181C in HIV reverse transcriptase
assay.text: microbe, parasite or virus in culture
Type: cell-based
condition.description: HIV strain with RT mutations K103N and Y181C; cellular assay
quantity.kind: pEC50 F
When you answer, write just the number.

Take a look at these entries with their results.
>>> print(df.to_string())
                                   compound                              study_system  quantity_kind  recorded_result
0  Cc1cc(CCC#N)cc(C)c1Nc1nc(Nc2ccc(C#N)cc2)ncc1C(N)=O [Compound 26]  Strain F, mutations K103N and Y181C in HIV reverse transcriptase        pEC50 F              9.2
1  CCON=Cc1cnc(Nc2ccc(C#N)cc2)nc1Nc1c(C)cc(/C=C/C#N)cc1C [Compound 31]  Strain F, mutations K103N and Y181C in HIV reverse transcriptase        pEC50 F              8.2
2  CC(=O)Nc1cnc(Nc2ccc(C#N)cc2)nc1Nc1c(F)cc(/C=C/C#N)cc1Cl [Compound 28]  Strain F, mutations K103N and Y181C in HIV reverse transcriptase        pEC50 F              7.3

Give a short answer stating reported pEC50 F for CON=Cc1cnc(Nc2ccc(C#N)cc2)nc1Nc1c(C)cc(/C=C/C#N)cc1C [Compound 32] .
8.7

----------
Tested on: Strain IIIB, wild type HIV-LAI strain
assay.text: Antiviral activity, cellular assay, strain IIIB
Format: cell-based
quantity.kind: pEC50 IIIB
When you answer, write just the number.

Take a look at these entries with their results.
In [3]: df
Out[3]:
                                  structure  quantity_kind  recorded_result
0  CCON=Cc1cnc(Nc2ccc(C#N)cc2)nc1Nc1c(C)cc(/C=C/C#N)cc1C     pEC50 IIIB              8.5
1  CON=Cc1cnc(Nc2ccc(C#N)cc2)nc1Nc1c(C)cc(/C=C/C#N)cc1C     pEC50 IIIB              8.5
2  Cc1cc(CCC#N)cc(C)c1Nc1nc(Nc2ccc(C#N)cc2)ncc1C(N)=O     pEC50 IIIB              9.7

Now for another entry.
Give a short answer stating reported pEC50 IIIB for `CC(=O)Nc1cnc(Nc2ccc(C#N)cc2)nc1Nc1c(F)cc(/C=C/C#N)cc1Cl` .
8.8
